Experiment: Thermostability, ProteoStat Thermal Shift Stability Kit, temperature of aggregation
Format: physicochemical
Conditions: pH 6.5; NS = protein not soluble
Catalogue of molecules with associated Tagg pH 6.5

State, in one line, measured Tagg pH 6.5 of SEQID-00502: protein of the 168 nutritive polypeptide library (protein, Glycine max, protein of the 168 nutritive polypeptide library) MASQSNTKSVHDFTVKDARGNNVNLADYKGKVLLIVNVASQCGLTNSNYTELNQLYEKYKGKGLEILAFPCNQFGAQEPGTNEEIVEFACTRFKAEFPIFDKVDVNGDNAAPLYKFLKSSKGGLFGDSIKWNFSKFLVDKDGNVVDRYAPTTSPLSIEKDIKKLLDA 78.5

State, in one line, measured Tagg pH 6.5 of SEQID-00100: nutritive polypeptide (protein, listed as Lactobacillus acidophilus) MSEEEIFNKIKDLIADNFEVDKDSITENTNFMNDLDADSIDLVEFILQLEDEFGAEIPDDEAEKIKTVGDAVSYIKSHQG 95

State, in one line, measured Tagg pH 6.5 of SEQID-00511: protein of the 168 nutritive polypeptide library (protein, Arthrospira platensis C1, protein of the 168 nutritive polypeptide library) MVLFGFGKKKSLPKPEEALPGRDRVMSVPDRHYINGNPLKPPFPEGMEQAVFGLGCFWGAERKFWQQQGVFSTAVGYAGGYTKNPTYEEVCSGMTGHTEVVLVVFDPKVISYTDLLKLFWESHNPTQGMRQGNDTGTQYRSAIYTYSDEQQRLALASRDRYQQALSAASYGEITTEIAPAQEFYYAEAYHQQYLGKNPNGYCGLGGTGVGCPAMTETSV 45.5

State, in one line, measured Tagg pH 6.5 of SEQID-00485: nutritive polypeptide naturally produced in Chickpea, recombinantly expressed in E. coli (protein, listed as Cicer arietinum) MTKTGYINAAFRSSRNNEAYLFINDKYVLLDYAPGTSNDKVLYGPSFVRDGYKSLAKTIFGTYGIDCSFDTEYNEAFIFYENFCARIDYAPHSDKDKIISGPKKIADMFPFFKGTVFENGIDAAFRSTKGKEVYLFKGDKYARIDYLTNRLVQNIKSISDGFPCLRGTIFEAGMDSAFASHKTNEAYLFKGEYYARINFTPGSTNDIMGGVKKTLDYWPSLRGIIPLE 36.5

State, in one line, measured Tagg pH 6.5 of SEQID-00622: protein of the 168 nutritive polypeptide library (protein, listed as Oryza sativa, subsp. japonica, protein of the 168 nutritive polypeptide library) MASEGAVSPAFAYTVVYVKDVAKSAAFYSAAFGYTVRRLDQSHKWAELESGTTTIAFTPLHQRETDALTGAVQLPDSAGERGPVEICFDYADVDAAYRRAVDSGAVPVSPPEQKSWGQKVGYVRDIDGIIVRMGSHVRA 47
